B1: Flag-CNK^2–549 [Drosophila] / V5-KSR [Drosophila] (parent)
chain 1: MSSNNNAPASAPDTGSTNANDPISGSLSVDSNLVIIQDMIDLSANHLEGLRTQCAISSTLTQQEIRCLESKLVRYFSELLLAKMRLNERIPANGLVPHTTGNELRQWLRVVGLSQGTLTACLARLTTLEQSLRLSDEEIRQLLADSPSQREEEELRRLTRAMQNLRKCMESLESGTAASNNDPEQWHWDSWDRPTHIHRGSVGNIGLGNNSTASPRTHHRQHGVKGKNSALANSTNFKSGRQSPSATEELNSTQGSQLTLTLTPSPPNSPFTPSSGLSSSLNGTPQRSRGTPPPARKHQTLLSQSHVQVDGEQLARNRLPTDPSPDSHSSTSSDIFVDPNTNASSGGSSSNVLMVPCSPGVGHVGMGHAIKHRFTKALGFMATCTLCQKQVFHRWMKCTDCKYICHKSCAPHVPPSCGLPREYVDEFRHIKEQGGYASLPHVHGAAKGSPLVKKSTLGKPLHQQHGDSSSPSSSCTSSTPSSPALFQQRERELDQAGSSSSANLLPTPSLGKHQPSQFNFPNVTVTSSGGSGGVSLISNEPVPEQFPTAPATANGGLDSLVSSSNGHMSSLIGSQTSNASTAATLTGSLVNSTTTTSTCSFFPRKLSTAGVDKRTPFTSEYTDTHKSNDSDKTVSLSGSASTDSDRTPVRVDSTEDGDSGQWRQNSISLKEWDIPYGDLLLLERIGQGRFGTVHRALWHGDVAVKLLNEDYLQDEHMLETFRSEVANFKNTRHENLVLFMGACMNPPYLAIVTSLCKGNTLYTYIHQRREKFAMNRTLLIAQQIAQGMGYLHAREIIHKDLRTKNIFIENGKVIITDFGLFSSTKLLYCDMGLGVPHNWLCYLAPELIRALQPEKPRGECLEFTPYSDVYSFGTVWYELICGEFTFKDQPAESIIWQVGRGMKQSLANLQSGRDVKDLLMLCWTYEKEHRPQFARLLSLLEHLPKKRLARSPSHPVNLSRSAESVF
chain 2: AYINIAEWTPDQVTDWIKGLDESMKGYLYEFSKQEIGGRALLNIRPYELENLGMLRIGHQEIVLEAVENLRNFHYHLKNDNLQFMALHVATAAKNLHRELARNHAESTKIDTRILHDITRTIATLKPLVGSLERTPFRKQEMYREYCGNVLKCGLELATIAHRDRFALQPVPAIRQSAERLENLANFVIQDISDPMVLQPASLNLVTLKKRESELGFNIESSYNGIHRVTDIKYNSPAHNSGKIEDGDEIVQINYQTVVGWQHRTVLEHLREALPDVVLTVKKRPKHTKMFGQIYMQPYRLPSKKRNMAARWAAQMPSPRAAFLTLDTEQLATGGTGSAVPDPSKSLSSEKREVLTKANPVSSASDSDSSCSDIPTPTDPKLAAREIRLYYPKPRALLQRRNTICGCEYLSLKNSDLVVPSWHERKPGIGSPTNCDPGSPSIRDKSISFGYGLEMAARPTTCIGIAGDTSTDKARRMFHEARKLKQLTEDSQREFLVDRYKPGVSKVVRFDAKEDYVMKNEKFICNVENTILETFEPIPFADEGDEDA

- Variants of: B1
- Method description: GST pull-down, immunoblot quantification
- Run parameters: with V5-KSR [Drosophila]; S2 cells; GST-HYP + RRKM (Ha-RASV12, Pyo-RAF, V5-KSR, Myc-MEK) co-expressed; captured via GST-HYP; anti-V5 (KSR) blot; parent: 1
Classification field: yes = ratio to parent at or over 0.3; no = ratio to parent under 0.3.

Would you please look over these solved cases?
>>> assigned_label("chain 2 V197E")
"no"
>>> assigned_label("chain 2 D194K")
"no"
>>> assigned_label("chain 2 S193A")
"yes"

q: Given the entry chain 2 M196E , answer whether its ratio to parent meets or surpasses 0.3.
a: no

q: Assess whether reported ratio to parent for chain 2 Q199A sits at 0.3 or higher.
a: yes
